// reported MFI at 33.3 nM for each item listed
Biological target: human CTLA-4 (human) (UniProt P16410)
Sequence (P16410 36-223): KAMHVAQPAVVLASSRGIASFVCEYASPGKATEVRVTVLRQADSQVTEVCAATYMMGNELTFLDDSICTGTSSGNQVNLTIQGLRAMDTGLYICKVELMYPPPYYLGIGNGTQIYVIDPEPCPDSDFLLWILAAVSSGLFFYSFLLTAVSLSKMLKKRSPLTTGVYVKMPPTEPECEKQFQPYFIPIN
Assay: flow cytometry, CHO cells expressing huCTLA4

# count of solved cases: 3
Query variant CD80 IgV-Fc Q27H/E35D/M47I/L85Q/D90G (Fc fusion) VIHVTKEVKEVATLSCGHNVSVEELAHTRIYWQKDKKMVLTMMSGDINIWPEYKNRTIFDITNNLSIVILALRPSDEGTYECVVQKYEKGAFKREHLAEVTLSVKAD yields MFI at 33.3 nM of 258000 MFI

Lookup result for variant CD80 IgV-Fc E35D/T41S/M43I/A71G/D90G (Fc fusion) VIHVTKEVKEVATLSCGHNVSVEELAQTRIYWQKDKKMVLSMISGDMNIWPEYKNRTIFDITNNLSIVILGLRPSDEGTYECVVLKYEKGAFKREHLAEVTLSVKAD ; measured MFI at 33.3 nM: 208000 MFI

Per the records, this binder ( variant CD80 IgV-Fc E35D/T41S/M43V/M47I/L70M/A71G (Fc fusion) VIHVTKEVKEVATLSCGHNVSVEELAQTRIYWQKDKKMVLSMVSGDINIWPEYKNRTIFDITNNLSIVIMGLRPSDEGTYECVVLKYEKDAFKREHLAEVTLSVKAD ) has MFI at 33.3 nM equal to 249000 MFI

Further cases:
Lab note: variant CD80 IgV-Fc V22D/E35D/M47L/L85Q (Fc fusion) VIHVTKEVKEVATLSCGHNVSDEELAQTRIYWQKDKKMVLTMMSGDLNIWPEYKNRTIFDITNNLSIVILALRPSDEGTYECVVQKYEKDAFKREHLAEVTLSVKAD gave MFI at 33.3 nM of 256000 MFI

// variant CD80 IgV-Fc Q33L/E35D/M47V/L85Q (Fc fusion) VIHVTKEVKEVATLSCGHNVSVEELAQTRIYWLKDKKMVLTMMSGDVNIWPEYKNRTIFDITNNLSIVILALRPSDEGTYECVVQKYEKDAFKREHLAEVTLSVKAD : MFI at 33.3 nM value = 75400 MFI

MFI at 33.3 nM reading for variant CD80 IgV-Fc Q33L/E35D/M47I (Fc fusion) VIHVTKEVKEVATLSCGHNVSVEELAQTRIYWLKDKKMVLTMMSGDINIWPEYKNRTIFDITNNLSIVILALRPSDEGTYECVVLKYEKDAFKREHLAEVTLSVKAD : 15900 MFI

Record variant CD80 IgV-Fc Y31S/E35D/M47L/T79L/E88G (Fc fusion) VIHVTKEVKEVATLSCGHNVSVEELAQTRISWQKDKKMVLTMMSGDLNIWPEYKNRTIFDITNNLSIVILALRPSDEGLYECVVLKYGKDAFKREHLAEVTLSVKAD , field MFI at 33.3 nM: 1100 MFI

Given item variant CD80 IgV-Fc Q27H/Q33L/E35D/M47V/N55D/L85Q/K89N (Fc fusion) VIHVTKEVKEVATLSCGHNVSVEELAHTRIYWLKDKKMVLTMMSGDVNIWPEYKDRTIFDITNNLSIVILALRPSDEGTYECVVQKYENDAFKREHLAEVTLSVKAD , the value recorded as its MFI at 33.3 nM is 56100 MFI
